Test system: Dd2
EXPERIMENTAL_DETAILS: qHTS profiling for inhibitors of Plasmodium falciparum proliferation (AID 504749); further: nearly all actives have a fitted effect of over 60% in size
CONDITION_PARAMETERS: P. falciparum in erythrocytes, SYBR Green DNA, 72 h; series mostly up to 28.7 µM
Results filed as inconclusive are left out. Activity calls are given as the source filed them. The call rests on the fitted dose curve; in most records, active means well fitted inhibition curve with a large enough effect; inconclusive means small, poorly fitted or top-dose-only effect; inactive means flat fitted curve, though single readings scatter.
Allowed answers: True = active, False = inactive

>>> print(df.to_string())
                             compound  target_or_system  assigned_category
0   CNCC[C@H](Oc1cccc2ccccc12)c1cccs1               Dd2               True
1  OC(Cn1cncn1)(Cn1cncn1)c1ccc(F)cc1F               Dd2              False

Exercise: What was the test verdict on CN1CCN(c2c(F)cc3c(=O)c(C(=O)O)cn4c3c2OCN4C)CC1 ?
Key: False

Exercise: Tell me the assay call for CC(C)NCC(O)c1ccc(NS(C)(=O)=O)cc1 (stereo unspecified) please.
Key: False

Exercise: For NC(=O)N1c2ccccc2CC(=O)c2ccccc21 , which call appears in the assay record?
Key: False

Exercise: # fetch the recorded call for Cc1ncc([N+](=O)[O-])n1CCO here
Key: False

Exercise: Recorded test outcome, item Cc1oc(=O)oc1CN1CCN(c2cc3c(cc2F)c(=O)c(C(=O)O)c2n3C(C)S2)CC1 (stereo unspecified)
Key: True

Exercise: For this compound, state the assay outcome: O=C(O)c1cn(C2CC2)c2cc(N3CCNCC3)c(F)cc2c1=O
Key: True

Exercise: Entry CCCN[C@H]1CCc2nc(N)sc2C1 : call = ?
Key: False

Exercise: Hey, what did the test say about CC(C)(C#N)c1cc(Cn2cncn2)cc(C(C)(C)C#N)c1 ?
Key: False

Exercise: Hi, sorry to bother you, what did the test record for CCCc1nc(C)c2c(=O)[nH]c(-c3cc(S(=O)(=O)N4CCN(CC)CC4)ccc3OCC)nn12 ?
Key: False

###

EXPERIMENTAL_DETAILS: Drug repurposing screens with cells derived from glioblastoma tumor samples (AID 1345199); further: on the % scale 0 is the no-effect control and ±100 the full control effect; nearly all actives have a fitted effect of over 40% in size
CONDITION_PARAMETERS: GBM patient neurospheres viability, ATP luminescence, 48 h; at 45.9 µM (top of the series); tumour line B
Results filed as inconclusive are left out.
READOUT_KIND: activity, negative = cell killing (%)
Supply the numeric figure in %, leaving out any unit text.

Here's what some known entries look like.
In [3]: df
Out[3]:
                                smiles_code  unit  result
0           NC(=O)N1c2ccccc2CC(=O)c2ccccc21     %   -29.6
1  C[C@@H]1CN(c2c(F)c(N)c3c(=O)c(C(=O)O)cn(C4CC4)c3c2F)C[C@H](C)N1     %   -1.03
2                   CC1=NN(c2ccccc2)C(=O)C1     %   -3.42
3  COCCCOc1cc(C[C@@H](C[C@H](N)[C@@H](O)C[C@H](C(=O)NCC(C)(C)C(N)=O)C(C)C)C(C)C)ccc1OC     %    9.07
4           Cc1nnc(NS(=O)(=O)c2ccc(N)cc2)s1     %    4.69

Here's the next entry for you.
Looking up NNC(=O)c1ccncc1 , I found its activity, negative = cell killing recorded as -4.35

###

EXPERIMENTAL_DETAILS: qHTS of pediatric cancer cell lines to identify multiple opportunities for drug repurposing: Primary screen for DAOY cells (AID 1347090); further: nearly all actives have a fitted effect of over 55% in size
CONDITION_PARAMETERS: DAOY medulloblastoma viability, CellTiter-Glo luminescence, 48 h; series mostly up to 46 µM
Inconclusive results are not listed. Activity calls are given as the source filed them. Calls come from the whole dose curve; as a rule, active = well fitted cell-killing curve with a large enough effect; inconclusive = small, poorly fitted or top-dose-only effect; inactive = flat fitted curve, though single readings scatter.
Mark one answer only. Choices: true (1) for active, false (0) for inactive

In [3]: df
Out[3]:
                                   compound  assigned_category
0  COc1ccccc1OCC(O)COC(N)=O (stereo not drawn)          false (0)
1  CN(C)CCc1c[nH]c2ccc(CS(=O)(=O)N3CCCC3)cc12          false (0)
2  COc1cc([C@@H]2c3cc4c(cc3[C@H](O)[C@H]3COC(=O)[C@H]23)OCO4)cc(OC)c1OC           true (1)
3  CCN(CC)CC#CCOC(=O)C(O)(c1ccccc1)C1CCCCC1 (stereo not drawn)          false (0)
4  CCn1cc(C(=O)O)c(=O)c2cc(F)c(N3CCN(C)CC3)cc21          false (0)

Exercise: Outcome? COc1cnc(NS(=O)(=O)c2ccc(N)cc2)nc1
Key: false (0)

Exercise: Recorded test outcome, item CC(=O)CC(c1ccccc1)c1c(O)c2ccccc2oc1=O (stereo not drawn)
Key: false (0)

Exercise: Recorded test outcome, item CNS(=O)(=O)CCc1ccc2[nH]cc(C3CCN(C)CC3)c2c1
Key: false (0)

Exercise: // param item: CCCCOc1ccc(CC(=O)NO)cc1 ; yields the recorded call
Key: true (1)

Exercise: Hello, I am checking results. What call was entered for CCOc1cc(N)c(Cl)cc1C(=O)NCC1CN(Cc2ccc(F)cc2)CCO1 (stereo not drawn) ?
Key: false (0)

###

EXPERIMENTAL_DETAILS: Quantitative High-Throughput drug screen in 47 multiple myeloma cell lines against the NCATS MIPE library collection: ARP1_JJKsccF8 cell viability assay (AID 1918928; further: nearly all actives have a fitted effect of over 40% in size;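 on viability: 100% = DMSO only wells and 0% = medium only wells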)
CONDITION_PARAMETERS: ARP1 myeloma cells viability, CellTiter-Glo ATP, 48 h; series mostly up to 45.8 µM
Inconclusive results are not listed. Activity calls are given as the source filed them. The call rests on the fitted dose curve; in most records, active means well fitted cell-killing curve with a large enough effect; inconclusive means small, poorly fitted or top-dose-only effect, or effect the other way; inactive means no such curve, though single readings can be large or run the other way.
Select the correct class. Options are 1 = active, -1 = inactive and nothing else.

In [3]: df
Out[3]:
                                   molecule  assigned_category
0  COc1cc([C@@H]2c3cc4c(cc3[C@H](O)[C@H]3COC(=O)[C@H]23)OCO4)cc(OC)c1OC                 -1

Exercise: Assay outcome for COc1cc(NS(=O)(=O)c2ccc(N)cc2)nc(OC)n1 : what was it?
Key: -1

Exercise: Fill in: this test's call for COc1ccc(C(=O)CC(=O)c2ccc(C(C)(C)C)cc2)cc1 is ___
Key: 1

Exercise: What outcome does the record of this test show for CCC(=O)O[C@]1(C(=O)SCF)[C@H](C)C[C@H]2[C@@H]3C[C@H](F)C4=CC(=O)C=C[C@]4(C)[C@@]3(F)[C@@H](O)C[C@@]21C ?
Key: -1

Exercise: Identify the outcome logged in this assay for the molecule shown: CC[C@H](NC(C)C)[C@H](O)c1ccc(O)c2[nH]c(=O)ccc12
Key: -1

Exercise: Record request — test call for CC(C)C1CCC(C(=O)N[C@H](Cc2ccccc2)C(=O)O)CC1 (stereo not given in full)
Key: -1

Exercise: What is the recorded call for this molecule in the test? COc1cnc(NS(=O)(=O)c2ccc(N)cc2)nc1
Key: -1

Exercise: What is the recorded call for this molecule in the test? CCN1CCCC1CNC(=O)c1cc(S(N)(=O)=O)ccc1OC (stereo not given)
Key: -1

Exercise: Fill in: this test's call for CCOCC(O)COc1ccc(NC(=O)CC[S+](C)C)cc1 (stereo not given) is ___
Key: -1

Exercise: Short answer needed: outcome of this test for NC(=O)N1c2ccccc2CC(=O)c2ccccc21 ?
Key: -1

###

TARGET_OR_SYSTEM: Phospholipid hydroperoxide glutathione peroxidase GPX4 (Homo sapiens)
EXPERIMENTAL_DETAILS: Primary qHTS Assay for Inhibitors of Recombinant Selenoprotein Glutathione Peroxidase 4 (GPX4) (AID 1845192); further: nearly all actives have a fitted effect of over 65% in size
CONDITION_PARAMETERS: recombinant GPX4, GR-coupled NADPH fluorescence, 15 min; series mostly up to 50 µM
Records with an inconclusive call do not appear. The source made the active and inactive calls. Calls follow the shape of the dose curve; as a rule, active = well fitted inhibition curve with a large enough effect; inconclusive = small, poorly fitted or top-dose-only effect; inactive = flat fitted curve, though single readings scatter.
READOUT_KIND: outcome

Known outcome results, listed for orientation:
>>> df
                                   molecule                          target_or_system  readout_kind    result
0                   C#CCN[C@@H]1CCc2ccccc21  Phospholipid hydroperoxide glutathione peroxidase GPX4 (Homo sapiens)       outcome  inactive
1     CNS(=O)(=O)Cc1ccc2[nH]cc(CCN(C)C)c2c1  Phospholipid hydroperoxide glutathione peroxidase GPX4 (Homo sapiens)       outcome  inactive
2  Cc1nnc(C(=O)NC(C)(C)c2nc(C(=O)NCc3ccc(F)cc3)c(O)c(=O)n2C)o1  Phospholipid hydroperoxide glutathione peroxidase GPX4 (Homo sapiens)       outcome  inactive
3                           NNC(=O)c1ccncc1  Phospholipid hydroperoxide glutathione peroxidase GPX4 (Homo sapiens)       outcome  inactive
4                       CCCc1cc(C(N)=S)ccn1  Phospholipid hydroperoxide glutathione peroxidase GPX4 (Homo sapiens)       outcome  inactive

Entry Nc1nc(F)nc2c1ncn2[C@@H]1O[C@H](CO)[C@@H](O)[C@@H]1O , outcome reported as inactive

Form field outcome, entry CN(C)CCc1c[nH]c2ccc(C[C@H]3COC(=O)N3)cc12 : inactive

Reported outcome of COc1ccccc1OCC(O)COC(N)=O (configuration not stated) : inactive

Kindly note the recorded outcome for CCOC(=O)[C@H](CCc1ccccc1)N[C@H]1CCc2ccccc2N(CC(=O)O)C1=O , which is inactive

Record summary for NC(=O)c1cccnc1 : reported outcome = inactive

The molecule Cc1ccc(S(=O)(=O)N[C@@H](Cc2ccccc2)C(=O)CCl)cc1 showed outcome equal to inactive

Query COC(c1ccccc1)(c1ccccc1)[C@H](Oc1nc(C)cc(C)n1)C(=O)O yields outcome of inactive
